Provide the reported growth of each item.
# Tested on: NCI-H460 lung
# Test Details: NCI-60 one-dose screen, 48 h (100 = growth as untreated, 0 = no growth, -100 = all killed)
# Condition Set: 10 µM unless noted
This is part of a sample that, as a whole, favours compounds with a hit. Of some 83,000 tested, about 20% had one in any assay.
Just the number please, in %, no unit attached.

Lab book: growth of CC(C)(C)c1cc(-c2nc3ccc(N4CCN(CCO)CC4)cc3[nH]2)cc(C(C)(C)C)c1O noted as 4.48

Lab book: growth of O=C1c2ccccc2C(=O)c2c1oc1oc3c(c(=O)c21)c(=O)n(-c1ccccc1)c1ccccc31 noted as 33.6

Lab book: growth of OCc1c(-c2ccccc2)nc2sccn12 noted as 106

Lab book: growth of C[C@]12CC[C@@H]3c4cc(O)c(O)cc4CC[C@H]3[C@@H]1CC[C@@H]2O noted as 29.5

Lab book: growth of Cc1ccc(S(=O)(=O)OCC(=O)Nc2ccc(C(=O)O)c(O)c2)cc1 noted as 103

Lab book: growth of CC(C)CCC[C@@H](C)[C@H]1CC[C@H]2[C@@H]3CC[C@H]4C/C(=N/O)CC[C@]4(C)[C@H]3CC[C@]12C noted as 106

Lab book: growth of O=[N+]([O-])c1ccc(S(=O)(=O)N2CCN(c3ccnc4cc(Cl)ccc34)CC2)c([N+](=O)[O-])c1 noted as 99.2

Lab book: growth of Cc1ccc(S(=O)(=O)N2CCC(C(=O)Nc3ccc(F)cc3F)CC2)cc1 noted as 107

Lab book: growth of Nc1c(C(=O)Nc2cccc([N+](=O)[O-])c2)sc2nc3c(cc12)C(O)CCC3 (stereo not given) noted as 28.2

Lab book: growth of O=C(CCC(=O)OC1CCCC1)OC1CCCC1 noted as 104

Lab book: growth of CCCCCCCCCN1C(=O)/C(=c2\sc3n(c2=O)C2C(NN=3)N(CC)C(=O)N2CC)c2ccccc21 (stereo not given) noted as 46.1

Lab book: growth of C=C1C(=O)O[C@H]2[C@H]1CC/C(COC(=O)NCCc1cccc(OC)c1)=C\CC[C@@]1(C)O[C@@H]21 noted as 74.5

Lab book: growth of COc1cc(Cn2c(-c3nonc3N)nc3ccccc32)ccc1C noted as 11

Lab book: growth of CCOC(=O)C1=C(CSC(=S)N(C2CCCCC2)C2CCCCC2)N(C)C(=O)NC1c1ccccc1 (stereo not given) noted as 12.7

Lab book: growth of COc1cc(NCCCN=C(N)NC(N)=NC(C)C)c2ncccc2c1 noted as 91.9

Lab book: growth of O=C(CNC1CCCCC1)Nc1ccc(-c2nc3ccccc3s2)cc1 noted as 91.3

Lab book: growth of O=S(=O)(NCCCNc1cc(-c2cn(-c3ccccc3)nc2-c2cccc(O)c2)ccn1)c1ccc(Br)cc1 noted as 5.69

Lab book: growth of CN(C)c1nc(N)c(N=O)c(N)n1 noted as 110

Lab book: growth of Clc1ccc(/C=C/c2nc(N3CCOCC3)c3nc(Cl)c(Cl)cc3n2)cc1 noted as 105

Lab book: growth of O=C(Nc1cc(C(F)(F)F)cc(C(F)(F)F)c1)Nc1ccc(OCc2nnc(-c3ccc(Cl)cc3)o2)c(F)c1 noted as 6.63

---

# Test system: CCRF-CEM leukemia
# Test Details: NCI-60 one-dose screen, 48 h
# Condition Set: 10 µM unless noted
About 83,000 compounds went through this panel and 20% of them were active in at least one assay; those are over-represented in the sample as a whole. Calls of active or inactive are those of the source. Rule for the calls: active = growth percent below 10; inactive = the rest.
Your answer must be one of the following: active, inactive

Data request: Tell me the recorded outcome of this test for CN(C)C1CCC(NC2=CC(=O)C=CC2=O)CC1 (stereo unspecified) .
Data returned: inactive

Data request: Tell me the recorded outcome of this test for CC1Cc2c(N(C)C)ncnc2N(C)c2ccc(O)cc21 (stereo unspecified) .
Data returned: inactive

Data request: Tell me the recorded outcome of this test for O=C(O)c1cn(C2CC2)c2cc(N3CCN(S(=O)(=O)c4ccc(Cl)c(Cl)c4)CC3)c(F)cc2c1=O .
Data returned: inactive

Data request: Tell me the recorded outcome of this test for COc1cc(OC)c(C(=O)/C=C/c2ccc(C(F)(F)F)cc2)c(OC)c1 .
Data returned: inactive

Data request: Tell me the recorded outcome of this test for COc1cc(OC)c(C(=O)/C=C/c2ccc(C#N)cc2)c(OC)c1 .
Data returned: active

Data request: Tell me the recorded outcome of this test for NC(=O)c1cccc(N2Cc3ccccc3OC3=C2C(=O)c2c(O)ccc(O)c2C3=O)c1 .
Data returned: active

---

# System: HOP-92 NSCLC
# Test Details: NCI-60 one-dose screen, 48 h (100 = growth as untreated, 0 = no growth, -100 = all killed)
# Condition Set: 10 µM unless noted
This is part of a sample that, as a whole, favours compounds with a hit. Of some 83,000 tested, about 20% had one in any assay. Calls of active or inactive are those of the source. Rule for the calls: active = growth percent below 10; inactive = the rest.
Recorded Metric: growth

Let me check: Nc1c(C(=O)Nc2ccccc2)sc2nc3c(cc12)CN(Cc1ccccc1)CC3 , system HOP-92 NSCLC, measured growth is 20.2% (inactive)

Let me check: O=C1Nc2ccc(Br)cc2C1=N/C=c1\[nH]c(=O)/c(=C/c2ccc(Cl)cc2)s1 , system HOP-92 NSCLC, measured growth is 83.2% (inactive)

Let me check: CC(=O)C1CCC(C)=CC1=O (stereo not given) , system HOP-92 NSCLC, measured growth is 96.9% (inactive)

Let me check: Cc1ccc(C2=NN(c3ccc(S(=O)(=O)NC(=O)NCc4ccccc4)cc3)C(c3ccc(N(C)C)cc3)C2)c(C)c1 (stereo not given) , system HOP-92 NSCLC, measured growth is 82.3% (inactive)

Let me check: CC1=NN2C(=NC3=C(CCC/C3=C\c3ccc(Cl)cc3)C2c2ccc(Cl)cc2)S1 (stereo not given) , system HOP-92 NSCLC, measured growth is 77.9% (inactive)

Let me check: O=C1c2ccccc2C(=O)c2c1oc1oc3c(c(=O)c21)c(=O)n(-c1ccccc1)c1ccccc31 , system HOP-92 NSCLC, measured growth is 80% (inactive)

Let me check: CCOP(=O)(CCN1CCN(CCCCCOc2cc3c(cc2OC)C(=O)N2CCC[C@H]2C=N3)CC1)OCC , system HOP-92 NSCLC, measured growth is -47.9% (active)

Let me check: CC(Br)C(O)c1cc2c(cc1Br)OCO2 (stereo not given) , system HOP-92 NSCLC, measured growth is 104% (inactive)

Let me check: c1ccc([P+](CCC[P+](c2ccccc2)(c2ccccc2)c2ccccc2)(c2ccccc2)c2ccccc2)cc1 , system HOP-92 NSCLC, measured growth is 20.1% (inactive)

Let me check: CCc1c(C(=O)Nc2ccc3ccccc3c2)[nH]c(C)c1C(C)=O , system HOP-92 NSCLC, measured growth is 92.3% (inactive)

---

# Tested on: NCI-H322M lung
# Test Details: NCI-60 one-dose screen, 48 h (100 = growth as untreated, 0 = no growth, -100 = all killed)
# Condition Set: 10 µM unless noted
This is part of a sample that, as a whole, favours compounds with a hit. Of some 83,000 tested, about 20% had one in any assay.
Recorded Metric: growth (%)
Just the number please, in %, no unit attached.

Let me check: CCN1C(=O)N[C@H]2[C@@H]3NC(=O)c4ccc(Cl)n4[C@@H]3C[C@]21O , system NCI-H322M lung, measured growth is 11.7

Let me check: Cc1cc2c(c(=O)o1)C(c1ccc(OC(=O)N3CCOCC3)cc1)C(C#N)=C(N)O2 (stereo not given) , system NCI-H322M lung, measured growth is 93.1

Let me check: c1cncc(CNc2ccccc2-c2nnc(Nc3ccc4c(c3)OCCO4)o2)c1 , system NCI-H322M lung, measured growth is 49.6

Let me check: Cn1c(=O)c2c(nc3n2CCN(CCc2ccc(OCCN4CCOCC4)cc2)C3)n(C)c1=O , system NCI-H322M lung, measured growth is 100

Let me check: O=C(Nc1ccc(F)c(Cl)c1)c1n[nH]c(=O)c2ccccc12 , system NCI-H322M lung, measured growth is 113

---

Provide the reported growth of each item.
# System: MALME-3M melanoma
# Test Details: NCI-60 one-dose screen, 48 h (100 = growth as untreated, 0 = no growth, -100 = all killed)
# Condition Set: 10 µM unless noted
Compounds without any hit were thinned out: in the full panel of roughly 83,000, 20% have a hit.
Just the number please, in %, no unit attached.

Lab book: growth of CCOC(=O)/C=C\C(=O)NC(N)=O noted as 102

Lab book: growth of CCCCCCCCCCn1cc[n+](C)c1 noted as 8.94

Lab book: growth of COc1ccc(/C(=N/O)c2cc(F)c(F)c(OC)c2F)cc1O noted as 60.7

Lab book: growth of O=C(Cc1n[nH]c(=O)c2ccccc12)OCc1c(Cl)cccc1Cl noted as 100

Lab book: growth of N=C(N)c1ccc(-c2ccc(-c3ccc(Cl)cc3)o2)nc1 noted as -66.4

Lab book: growth of COc1cc2c(cc1OCCCCn1c(-c3cc(=O)c4ccccc4o3)nc3ccccc31)N=C[C@@H]1CCCN1C2=O noted as 109
